The reported numbers originate from patent US10538555B2.

Molecular target: Human PD-L1/PD-1 (Homo sapiens)
Construct: TVMV protease cleavage site (C); made in house; host or cells: HEK293T cells
Experiment: HTRF Human PD-L1/PD-1 binding assay (PD-1-Ig/PD-L1-His)
Conditions: PD-L1-His 10 nM, PD-1-Ig 20 nM; class symbol; read-out: HTRF Human PD-L1/PD-1 Binding Assay IC50 Range
Excerpt: Methods for Testing the Ability of Macrocyclic Peptides to Compete for the Binding of PD-1 to PD-L1 Using Homogenous Time-Resolved Fluorescence (HTRF) Binding Assays The ability of the macrocyclic peptides of the present disclosure to bind to PD-L1 was investigated using a PD-1/PD-L1 Homogenous Time-Resolved Fluorescence (HTRF) binding assay. Homogenous Time-Resolved Fluorescence (HTRF) Assays of Binding of Soluble PD-1 to Soluble PD-L1. […]
Where a SMILES comes first, the peptide text is derived from it. Bridges are numbered along the chain shown (N, C = ends). [ ]: non-standard residue; d: D form. Hyp = O=C(O)[C@@H]1C[C@@H](O)CN1; NMeF = CN[C@@H](Cc1ccccc1)C(=O)O; NMeNle = CCCC[C@H](NC)C(=O)O; NMeM = CN[C@@H](CCSC)C(=O)O; Abu = CC[C@H](N)C(=O)O; Sar = CNCC(=O)O
Reported property: IC50

What does the data say about its IC50? Entry: CSCC[C@H]1C(=O)N2C[C@H](O)C[C@H]2C(=O)N[C@@H](CC(=O)O)C(=O)N[C@@H](C(C)C)C(=O)N(C)[C@@H](Cc2ccccc2)C(=O)N[C@@H](Cc2ccc(O)cc2)C(=O)N2C[C@H](O)C[C@H]2C(=O)N[C@@H](Cc2c[nH]c3ccccc23)C(=O)N[C@@H](Cc2ccc(O)cc2)C(=O)N[C@@H](CC(C)C)C(=O)N[C@H](C(=O)NCC(N)=O)CSCC(=O)N[C@@H](Cc2ccccc2)C(=O)N(C)[C@@H](Cc2ccccc2)C(=O)N1C [Example 9166] ({CH2CO}-F[NMeF][NMeM][Hyp]DV[NMeF]Y[Hyp]WYLCG-NH2; thioether N-13)
1000 to 10000 nM

***
Could you share which IC50 value was measured for CCCC[C@H]1C(=O)N2CCC[C@@H]2C(=O)N[C@@H](CO)C(=O)N[C@@H](CC)C(=O)N(C)[C@@H](Cc2ccccc2)C(=O)N[C@@H](Cc2ccc(O)cc2)C(=O)N(C)CC(=O)N[C@@H](Cc2c[nH]c3ccccc23)C(=O)N[C@@H](Cc2ccc(O)cc2)C(=O)N[C@@H](CC(C)C)C(=O)N[C@H](C(=O)NCC(N)=O)CSCC(=O)N[C@@H](Cc2ccccc2)C(=O)N(C)[C@@H](Cc2ccccc2)C(=O)N1C [Example 10058] ({CH2CO}-F[NMeF][NMeNle][dP]S[Abu][NMeF]Y[Sar]WYLCG-NH2; thioether N-13) ?
10 to 99.9 nM

###

Biological target: Human PD-L1/PD-1 (Homo sapiens, UniProt Q9NZQ7)
Construct: TVMV protease cleavage site (C); made in house; host or cells: HEK293T cells
Sequence (Q9NZQ7 with tags, fused parts or gaps): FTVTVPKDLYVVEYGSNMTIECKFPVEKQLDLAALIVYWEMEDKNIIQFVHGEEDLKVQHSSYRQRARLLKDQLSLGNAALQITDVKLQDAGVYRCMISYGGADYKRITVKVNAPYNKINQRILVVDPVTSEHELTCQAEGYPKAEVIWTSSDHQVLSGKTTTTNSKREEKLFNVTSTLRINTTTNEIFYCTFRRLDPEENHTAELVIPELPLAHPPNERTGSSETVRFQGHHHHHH
Assay: HTRF Human PD-L1/PD-1 binding assay (PD-1-Ig/PD-L1-His)
Conditions: PD-L1-His 10 nM, PD-1-Ig 20 nM; class symbol; read-out: HTRF Human PD-L1/PD-1 Binding Assay IC50 Range
pIC50: −log10 of the molar value. *1 amine or outer side, *2 acyl side, *3 side chain or, on linkers, in order; H or OH if unused. Where a SMILES comes first, the peptide text is derived from it. Bridges are numbered along the chain shown (N, C = ends). [ ]: non-standard residue; d: D form. ξ: configuration not given here. X3 = O=C(C[C@@H](CO)C(=O)[*:2])[C@H](Cc1c[nH]c2ccccc12)N[*:1]; X2 = NC(=O)C[C@H](N[*:1])C(=O)C1CCC[C@H]1C(=O)[*:2]; Hyp = O=C(O)[C@@H]1C[C@@H](O)CN1; NMeNle = CCCC[C@H](NC)C(=O)O; dNle = CCCC[C@@H](N)C(=O)O; NMeA = CN[C@@H](C)C(=O)O; ξC = NC(CS)C(=O)O
Reported property: pIC50

Any idea what its pIC50 is? The molecule is CCCC[C@H]1C(=O)N(C)[C@@H](CCCC)C(=O)N[C@@H](CCC(=O)O)C(=O)N[C@H](C(=O)NCC(N)=O)CSCC(=O)N[C@@H](Cc2ccc(O)cc2)C(=O)N(C)[C@@H](C)C(=O)N[C@@H](CC(N)=O)C(=O)N2CCC[C@H]2C(=O)N[C@@H](CO)C(=O)N[C@@H](CCC(N)=O)C(=O)N2C[C@H](O)C[C@H]2C(=O)N[C@@H](Cc2c[nH]c3ccccc23)C(=O)N[C@@H](CCC(=O)O)C(=O)N[C@@H](Cc2c[nH]c3ccccc23)C(=O)N1C [Example 5240] ({CH2CO}-Y[NMeA]NPSQ[Hyp]WEW[NMeNle][NMeNle]ECG-NH2; thioether N-14)
8.00 to 9.00

Now consider a different molecule.
Name the recorded pIC50 for CCCC[C@H]1NC(=O)[C@H](Cc2c[nH]c3ccccc23)NC(=O)[C@H](CO)CC(=O)[C@H](Cc2c[nH]c3ccccc23)NC(=O)[C@@H]2C[C@@H](O)CN2C(=O)[C@H](CCC(N)=O)NC(=O)[C@H](Cc2cnc[nH]2)NC(=O)[C@@H]2CCCC2C(=O)[C@H](CC(N)=O)NC(=O)[C@H](C)N(C)C(=O)[C@H](Cc2ccc(O)cc2)NC(=O)CSCC(C(=O)NCC(N)=O)NC(=O)[C@H](CCC(=O)O)NC(=O)[C@H](CCCC)N(C)C1=O (some centres unmarked) [Example 10127] ({CH2CO}-Y[NMeA][X2]HQ[Hyp][X3]W[dNle][NMeNle]E[ξC]G-NH2; thioether N-12) .
5.00 to 6.00
